# target.or.test.system: Serotonin 2 (5-HT2) receptor (Rattus norvegicus, UniProt P30994+P08909+P14842)
readout: -Log Ki

Some compounds with recorded -Log Ki:
[[record]]
structure_smiles_string = "CN1CCN(C2=Nc3cc(Cl)ccc3Oc3ncccc32)CC1"
target_or_test_system = "Serotonin 2 (5-HT2) receptor (Rattus norvegicus, UniProt P30994+P08909+P14842)"
readout = "-Log Ki"
number = 7.19

[[record]]
structure_smiles_string = "CN1CCN(C2=Nc3ccccc3Sc3ncccc32)CC1"
target_or_test_system = "Serotonin 2 (5-HT2) receptor (Rattus norvegicus, UniProt P30994+P08909+P14842)"
readout = "-Log Ki"
number = 6.29


[I] Cc1ccc2c(c1)N=C(N1CCN(C)CC1)c1cccnc1O2
[II] CN1CCN(C2=Nc3cccnc3Oc3ccccc32)CC1
Request: Given the two records I and II , choose the one whose -Log Ki value is lower. Respond using the label that marks the chosen record.
Result: II
